Tested on: Renilla luciferase (RLuc)
test-description: normalised percent inhibition of luminescence (vs positive and negative controls); higher = stronger inhibition
condition-info: metal salt concentration 0.05 mM; screening conditions buffer
measurement-type: normalised percent inhibition (%)
Answers are plain numbers, in %.

compound	normalised percent inhibition / %
O=[N+]([O-])[O-].O=[N+]([O-])[O-].O=[N+]([O-])[O-].[Ga+3] [gallium(III) nitrate]	-6.25

// each compound listed below needs its normalised percent inhibition
1. O=[N+]([O-])[O-].O=[N+]([O-])[O-].[Cu+2] [copper(II) nitrate]
2. O=[N+]([O-])[O-].O=[N+]([O-])[O-].[Cd+2] [cadmium nitrate]

Output:
1: -13; 2: -1.96

###

Tested on: NanoLuc luciferase (NLuc)
test-description: normalised percent inhibition of luminescence (vs positive and negative controls); higher = stronger inhibition
condition-info: metal salt concentration 0.1 mM; 100 mM HEPES buffer
Rule: normalised percent inhibition under 20% gives Condition not met, otherwise Condition met.

Please review the entries below; each comes with its answer.
compound	class-name
O=[N+]([O-])[O-].[Ag+] [silver nitrate]	Condition met
O=[N+]([O-])[O-].O=[N+]([O-])[O-].[Cd+2] [cadmium nitrate]	Condition not met
CC#N.CC#N.CC#N.CC#N.F[B-](F)(F)F.[Cu+] [tetrakis(acetonitrile)copper(I) tetrafluoroborate]	Condition met
[Cl][Pt-2]([Cl])([Cl])[Cl].[K+].[K+] [potassium tetrachloroplatinate(II)]	Condition not met

Now look at this entry.
Input: Could you tell me if the measured normalised percent inhibition of [Cl][Fe]([Cl])[Cl] [iron(III) chloride] reaches 20% or more?
Output: Condition met

###

Test system: Renilla luciferase (RLuc)
test-description: normalised percent inhibition of luminescence (vs positive and negative controls); higher = stronger inhibition
condition-info: metal salt concentration 0.01 mM; screening conditions buffer
measurement-type: normalised percent inhibition (%)
One number for each entry, in %.

compound	unit-string	endpoint-value
O=S(=O)([O-])[O-].[Fe+2] [iron(II) sulfate]	%	18.2

Field: normalised percent inhibition. Fill in for each record below.
1. O=[N+]([O-])[O-].O=[N+]([O-])[O-].[Pb+2] [lead(II) nitrate]
2. O=[N+]([O-])[O-].O=[N+]([O-])[O-].[Zn+2] [zinc nitrate]
3. O=[N+]([O-])[O-].O=[N+]([O-])[O-].[Cd+2] [cadmium nitrate]

Output:
-2.6
-4.95
-13.5

For the 6 compounds below, give their normalised percent inhibition values.
1. O=[N+]([O-])[O-].O=[N+]([O-])[O-].O=[N+]([O-])[O-].[Ga+3] [gallium(III) nitrate]
2. [Cl][Fe]([Cl])[Cl] [iron(III) chloride]
3. [Cl][Sn][Cl] [tin(II) chloride]
4. O=[N+]([O-])[O-].[Ag+] [silver nitrate]
5. [Cl][Fe][Cl] [iron(II) chloride]
6. O=[N+]([O-])[O-].O=[N+]([O-])[O-].[Cu+2] [copper(II) nitrate]

Output:
[-4.58, -11.6, 13.4, 13, -1.72, -1.01]

Please report normalised percent inhibition for every entry that follows.
1. CC#N.CC#N.CC#N.CC#N.F[B-](F)(F)F.[Cu+] [tetrakis(acetonitrile)copper(I) tetrafluoroborate]
2. [Cl][Pt-2]([Cl])([Cl])[Cl].[K+].[K+] [potassium tetrachloroplatinate(II)]

Output:
1. 11.3
2. 8.68

###

Test system: firefly luciferase (FLuc)
test-description: normalised percent inhibition of luminescence (vs positive and negative controls); higher = stronger inhibition
condition-info: metal salt concentration 2.5 mM; screening conditions buffer
measurement-type: normalised percent inhibition (%)
Answers are plain numbers, in %.

Example compounds with recorded normalised percent inhibition:
compound	unit-string	normalised percent inhibition
[Cl][Fe]([Cl])[Cl] [iron(III) chloride]	%	101
O=[N+]([O-])[O-].O=[N+]([O-])[O-].[Zn+2] [zinc nitrate]	%	101

Hi team, please reply with normalised percent inhibition for each item in this list.
1. O=S(=O)([O-])[O-].[Fe+2] [iron(II) sulfate]
2. [Cl][Fe][Cl] [iron(II) chloride]
3. [Cl][Pt-2]([Cl])([Cl])[Cl].[K+].[K+] [potassium tetrachloroplatinate(II)]
4. [Cl][Sn][Cl] [tin(II) chloride]
5. CC#N.CC#N.CC#N.CC#N.F[B-](F)(F)F.[Cu+] [tetrakis(acetonitrile)copper(I) tetrafluoroborate]

Output:
[100, 99.4, 101, 100, 100]

###

Tested on: Renilla luciferase (RLuc)
test-description: normalised percent inhibition of luminescence (vs positive and negative controls); higher = stronger inhibition
condition-info: metal salt concentration 0.00025 mM; 100 mM HEPES buffer
measurement-type: normalised percent inhibition (%)
Numbers only, in %.

compound	unit-string	normalised percent inhibition
[Cl][Fe]([Cl])[Cl] [iron(III) chloride]	%	-24.6
O=[N+]([O-])[O-].[Ag+] [silver nitrate]	%	-2.96
[Cl][Pt-2]([Cl])([Cl])[Cl].[K+].[K+] [potassium tetrachloroplatinate(II)]	%	4.68
O=[N+]([O-])[O-].O=[N+]([O-])[O-].[Cd+2] [cadmium nitrate]	%	-15.8
[Cl][Sn][Cl] [tin(II) chloride]	%	-34

Dear colleague, could you send me normalised percent inhibition for each of the items below? Thanks.
1. CC#N.CC#N.CC#N.CC#N.F[B-](F)(F)F.[Cu+] [tetrakis(acetonitrile)copper(I) tetrafluoroborate]
2. O.O.O.O.O.O.O.O=S(=O)([O-])[O-].[Mg+2] [magnesium sulfate]

Output:
1: 12.4; 2: -4.68

// for each compound below, give its normalised percent inhibition
1. [Cl][Fe][Cl] [iron(II) chloride]
2. O=[N+]([O-])[O-].O=[N+]([O-])[O-].[Cu+2] [copper(II) nitrate]
3. O=S(=O)([O-])[O-].[Fe+2] [iron(II) sulfate]

Output:
1: -20.5; 2: -48.5; 3: -25.1

###

System: firefly luciferase (FLuc)
test-description: normalised percent inhibition of luminescence (vs positive and negative controls); higher = stronger inhibition
condition-info: metal salt concentration 1 mM; 100 mM HEPES buffer
measurement-type: normalised percent inhibition (%)
Numbers only, in %.

molecule	target	endpoint-value
O=[N+]([O-])[O-].O=[N+]([O-])[O-].O=[N+]([O-])[O-].[Ga+3] [gallium(III) nitrate]	firefly luciferase (FLuc)	98.9
[Cl][Sn][Cl] [tin(II) chloride]	firefly luciferase (FLuc)	37.6
[Cl][Fe][Cl] [iron(II) chloride]	firefly luciferase (FLuc)	100
O=[N+]([O-])[O-].O=[N+]([O-])[O-].[Zn+2] [zinc nitrate]	firefly luciferase (FLuc)	100
[Cl][Pt-2]([Cl])([Cl])[Cl].[K+].[K+] [potassium tetrachloroplatinate(II)]	firefly luciferase (FLuc)	100
O.O.O.O.O.O.O.O=S(=O)([O-])[O-].[Mg+2] [magnesium sulfate]	firefly luciferase (FLuc)	-17.2

Please state, for each entry, its recorded normalised percent inhibition.
1. O=[N+]([O-])[O-].O=[N+]([O-])[O-].[Pb+2] [lead(II) nitrate]
2. [Cl][Fe]([Cl])[Cl] [iron(III) chloride]
3. CC#N.CC#N.CC#N.CC#N.F[B-](F)(F)F.[Cu+] [tetrakis(acetonitrile)copper(I) tetrafluoroborate]
4. O=[N+]([O-])[O-].O=[N+]([O-])[O-].[Cu+2] [copper(II) nitrate]
5. O=[N+]([O-])[O-].[Ag+] [silver nitrate]
6. O=[N+]([O-])[O-].O=[N+]([O-])[O-].[Cd+2] [cadmium nitrate]
7. O=S(=O)([O-])[O-].[Fe+2] [iron(II) sulfate]

Output:
100
99.6
100
100
99.8
100
100

###

System: firefly luciferase (FLuc)
test-description: normalised percent inhibition of luminescence (vs positive and negative controls); higher = stronger inhibition
condition-info: metal salt concentration 0.025 mM; 100 mM HEPES buffer
# normalised percent inhibition >= 90% gives yes (1), anything below gives no (0)

Past entries and their recorded results:
molecule	class-name
[Cl][Fe]([Cl])[Cl] [iron(III) chloride]	yes (1)
O=S(=O)([O-])[O-].[Fe+2] [iron(II) sulfate]	no (0)
[Cl][Sn][Cl] [tin(II) chloride]	no (0)

Input: Record [Cl][Fe][Cl] [iron(II) chloride] ; criterion: normalised percent inhibition no lower than 90%. Met?
Output: no (0)

Input: Determine whether this molecule has normalised percent inhibition no lower than 90%: O=[N+]([O-])[O-].O=[N+]([O-])[O-].[Zn+2] [zinc nitrate]
Output: no (0)

Input: Is reported normalised percent inhibition greater than or equal to 90% here: CC#N.CC#N.CC#N.CC#N.F[B-](F)(F)F.[Cu+] [tetrakis(acetonitrile)copper(I) tetrafluoroborate]
Output: yes (1)

Input: Hi team, for O=[N+]([O-])[O-].O=[N+]([O-])[O-].[Cu+2] [copper(II) nitrate] , is the recorded normalised percent inhibition at or above 90%?
Output: yes (1)

Input: Record [Cl][Pt-2]([Cl])([Cl])[Cl].[K+].[K+] [potassium tetrachloroplatinate(II)] ; criterion: normalised percent inhibition no lower than 90%. Met?
Output: no (0)

Input: Tell me whether normalised percent inhibition is at least 90% here: O=[N+]([O-])[O-].O=[N+]([O-])[O-].[Cd+2] [cadmium nitrate]
Output: yes (1)

Input: Reported normalised percent inhibition at or above 90%? O=[N+]([O-])[O-].[Ag+] [silver nitrate]
Output: yes (1)

Input: Test whether the molecule O.O.O.O.O.O.O.O=S(=O)([O-])[O-].[Mg+2] [magnesium sulfate] records normalised percent inhibition of 90% or higher.
Output: no (0)
